Biological target: T1, human ALK2 extracellular domain with C-terminal His tag (E. coli) (human, UniProt Q04771 21-123)
T1 construct: Expressed in E. coli SHuffle T7, purified to a single band of 12 kDa; also called ALK2-ECD; human ALK2-ECD; not shown: C-terminal His tag from pET-28b(+)
T1 sequence: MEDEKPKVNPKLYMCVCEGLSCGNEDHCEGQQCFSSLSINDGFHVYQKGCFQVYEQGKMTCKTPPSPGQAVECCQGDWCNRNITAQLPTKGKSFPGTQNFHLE
Assay: SPR, Biacore T200; antibody captured from culture supernatant by anti-human IgG (Fc), antigen as analyte; 1:1 binding model
Method: The dissociation constants of the humanized A2-11E antibodies (IgG1) and the humanized A2-25C antibodies (IgG1) prepared in Example 18)-5 for the antigen (human ALK2 extracellular domain prepared in Example 14)-1) were measured using Biacore T200 (GE Healthcare Bio-Sciences Corp.) by the capture method which involves capturing each antibody as a ligand onto an immobilized anti-human IgG (Fc) antibody and assaying the antigen as an analyte. […]
property: pKd
# log scale: pKd equals minus log10 of the concentration in mol/L

Memo: humanized hA2-25C-H4/L2 (antibody, human IgG1, kappa, V domains shown, Human IgG1, kappa; used as culture supernatant of FreeStyle 293F cells) VH: EVQLVESGGGLVQPGGSLRLSCAASGFTFSYYAMSWVRQAPGKGLEWVASISRGGDNTYYRDSVKGRFTTSRDNSKNTLYLQMNSLRAEDTATYYCARLNYNNYFDYWGQGVLVTVSS VL: DIQMTQSPSSLSASVGDRVTITCQASQDIGNWLSWYQQKPGKAPKLLIYGATSLADGVPSRFSGSRSGTDYTLTISSLQPEDFATYYCLQAYSAPFTFGQGTKVEIKR , reported pKd: 7.25
